target: F508del (Homo sapiens, UniProt P13569, DEL508-508); construct: expressed in transfected cells; host or cells: NIH3T3 mouse fibroblasts; experiment: 3T3 Assay: membrane potential optical assay for F508del correctors in NIH 3T3 cells; format: cell-based; details: NIH3T3, F508del corrector assay, read-out: 3T3 Max Activity
Sequence (P13569 with tags, fused parts or gaps DEL508-508): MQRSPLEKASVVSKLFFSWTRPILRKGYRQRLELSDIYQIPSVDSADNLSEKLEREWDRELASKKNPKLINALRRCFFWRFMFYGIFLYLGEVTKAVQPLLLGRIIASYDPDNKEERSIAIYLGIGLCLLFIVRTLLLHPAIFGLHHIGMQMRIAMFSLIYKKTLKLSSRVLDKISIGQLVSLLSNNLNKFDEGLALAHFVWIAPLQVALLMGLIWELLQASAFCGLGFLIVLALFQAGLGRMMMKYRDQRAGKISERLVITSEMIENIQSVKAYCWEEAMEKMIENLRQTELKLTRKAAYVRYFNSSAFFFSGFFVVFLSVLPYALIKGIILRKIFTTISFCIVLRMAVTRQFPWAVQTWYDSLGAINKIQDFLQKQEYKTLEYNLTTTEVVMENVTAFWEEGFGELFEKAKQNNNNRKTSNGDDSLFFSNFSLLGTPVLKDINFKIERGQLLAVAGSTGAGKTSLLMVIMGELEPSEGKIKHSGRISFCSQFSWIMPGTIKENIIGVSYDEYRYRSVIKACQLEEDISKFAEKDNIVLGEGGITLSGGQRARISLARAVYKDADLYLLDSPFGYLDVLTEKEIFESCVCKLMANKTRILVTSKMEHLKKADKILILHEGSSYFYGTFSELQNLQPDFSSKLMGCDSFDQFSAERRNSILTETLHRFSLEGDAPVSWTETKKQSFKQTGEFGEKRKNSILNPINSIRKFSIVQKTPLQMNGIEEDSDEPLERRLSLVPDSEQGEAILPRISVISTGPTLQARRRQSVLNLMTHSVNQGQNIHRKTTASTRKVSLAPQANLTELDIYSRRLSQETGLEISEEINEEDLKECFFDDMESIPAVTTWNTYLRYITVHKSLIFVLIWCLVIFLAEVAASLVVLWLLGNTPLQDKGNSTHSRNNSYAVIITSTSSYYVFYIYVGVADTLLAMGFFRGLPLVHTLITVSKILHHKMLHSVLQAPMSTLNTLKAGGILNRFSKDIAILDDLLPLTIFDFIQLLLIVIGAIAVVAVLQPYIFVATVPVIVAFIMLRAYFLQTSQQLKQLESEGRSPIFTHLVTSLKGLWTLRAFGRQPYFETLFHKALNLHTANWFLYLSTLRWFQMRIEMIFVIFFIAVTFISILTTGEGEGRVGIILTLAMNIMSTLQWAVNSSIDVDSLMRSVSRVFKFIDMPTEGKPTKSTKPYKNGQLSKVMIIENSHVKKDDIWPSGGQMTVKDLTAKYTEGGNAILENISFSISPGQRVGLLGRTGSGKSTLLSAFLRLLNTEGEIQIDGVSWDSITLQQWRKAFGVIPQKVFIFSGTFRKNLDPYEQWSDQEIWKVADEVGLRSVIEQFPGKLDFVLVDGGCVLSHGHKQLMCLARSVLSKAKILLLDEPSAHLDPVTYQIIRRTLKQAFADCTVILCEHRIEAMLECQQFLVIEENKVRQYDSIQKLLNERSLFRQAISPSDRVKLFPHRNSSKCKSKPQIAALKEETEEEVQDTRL
The compounds listed here are annotated with their Emax.

compound | Emax
CCc1c2nc(nc1-c1ccccc1C(C)C)NS(=O)(=O)c1cccc(c1)NC(=O)c1cccc(c1)O2 | > 60%
CCc1c2nc(nc1-c1c(C)cccc1C)NS(=O)(=O)c1cccc(c1)NC(=O)c1cccc(c1)O2 | > 60%
CCc1c2nc(nc1-c1ccc([S+](C)[O-])cc1)NS(=O)(=O)c1cccc(c1)NC(=O)c1cccc(c1)O2 (centres unmarked) | < 30%
Cc1ccc2cc1Oc1nc(nc(-c3c(C)cccc3C)c1Cl)NS(=O)(=O)c1cccc(c1)NC2=O | > 60%
CCc1c2nc(nc1-c1ccccc1CC(C)C)NS(=O)(=O)c1cccc(c1)NC(=O)c1cccc(c1)O2 | > 60%
